# target desc: T1, recombinant rhesus CD40 (ECD)-hFc (rhesus monkey, UniProt P25942 21-193 (human entry))
# T1 construct: Bought protein; also called rhCD40(ECd)-hFc; monkey CD40 (ECD)-hFc
# T1 chain: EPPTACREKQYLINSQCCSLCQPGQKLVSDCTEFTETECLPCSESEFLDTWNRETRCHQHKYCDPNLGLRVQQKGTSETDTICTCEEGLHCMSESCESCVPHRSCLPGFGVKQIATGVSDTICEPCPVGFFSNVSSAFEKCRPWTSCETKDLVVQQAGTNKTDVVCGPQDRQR
# assay method text: ELISA, rhCD40(ECD)-hFc coated
Parameter EC50: see the listing below.
Value expressed in µg/mL; do not type the unit.

Before answering, review these 2 worked examples.
• 92F6 (mouse monoclonal antibody) (antibody, V domains shown) VH: QVQLEQSGAEVVKPGASVKVSCTASGFNIKDTYMHWVKQRPEQGLEWIGRIDPANGNTNYDPKFQGKATITADTSSNTGYLQLSSLTSEDTAVYYCSRWGYDWYFDVWGAGTSVTVSS VL: DIVITQSTAIMSASPGEKVTITCSASSSVSYIHWFQQKPGTSPKLWIYTTANLASGVPARFSGSGSGTSYSLTISRMEAEDAATYYCQQRSNYPFTFGSGTKLEIK = 0.0365
• 16A6 (mouse monoclonal antibody) (antibody, V domains shown) VH: EVQLEQSGPGLVKPSQSLSLTCSVTGYSITTNYHWNWIRQFPGNKLEWMGYIKYDGSNNYNPSLKNRISITRDTSKNQFFLKLNSVTTEDTATYYCARLDYWGQGTSVTVSS VL: DIVLTQSTLSLSVSLGDQASISCRSSQSLENSNGNTFLNWFLQKPGQSPQLLIYKVSNRFSGVLDRFSGTGSGTDLTLTISRVEAEDLGVYFCLQVTHVPFTFGSGTKLEIK = 0.0129

Here is another binder to look at.
Task: Tell us which EC50 value is on record for 142F7 (mouse monoclonal antibody) (antibody, V domains shown) VH: EVQLEQSGAELVRPGTSVKVSCKASGYAFTNYLIEWGIQRPGQGLEWIGVINPGTGGTNYNEKFKDKATLTTDKSSSTAYMQLSSLTSDDSAVYFCARGGSGFAYWGQGTLVTVSA VL: DIVLTQTTSSLSASLGDRVTISCRASQDINNYLNWYQQKPDGTVKLLIYYTSRLHSGVPSRFSGSGSGTDYSLTISNLEQEDIATYFCQQGNTLPWTFGGGTKLEIK
Result: 0.0201
